Reference source for all entries: patent US20260144862A1

I'd appreciate it if you could supply HLA-E Upregulation values for the items below.
target: HLA-E (Homo sapiens, UniProt P13747); construct: expressed in transfected cells; host or cells: mouse lymphoma cell line RMA-S/HLA-E/LFA-3, a gift from Chiara Romagnani, DRFZ Berlin; experiment: HLA-E stabilization by UL40 peptides on HLA-E-expressing RMA-S cells; format: cell-based; details: HLA-E-expressing RMA-S cells incubated with UL40 peptide
Sequence (P61769 21-119): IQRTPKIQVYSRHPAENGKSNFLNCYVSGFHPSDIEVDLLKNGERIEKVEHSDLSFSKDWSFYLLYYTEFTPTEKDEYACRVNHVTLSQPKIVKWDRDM
Sequence (P13747 22-358): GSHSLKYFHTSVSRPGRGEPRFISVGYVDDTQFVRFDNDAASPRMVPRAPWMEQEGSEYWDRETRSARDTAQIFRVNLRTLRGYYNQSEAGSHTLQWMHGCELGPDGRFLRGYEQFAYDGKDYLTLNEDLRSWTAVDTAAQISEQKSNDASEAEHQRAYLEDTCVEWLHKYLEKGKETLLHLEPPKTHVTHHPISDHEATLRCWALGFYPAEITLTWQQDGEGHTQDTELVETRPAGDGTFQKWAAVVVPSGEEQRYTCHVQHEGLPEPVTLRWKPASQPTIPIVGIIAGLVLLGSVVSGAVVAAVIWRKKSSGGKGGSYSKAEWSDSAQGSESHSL
One number for each entry, in %.

Worked cases, HLA-E Upregulation given:
- CONSTRUCT_SEQUENCE: "VLAPRTLLL [HCMV UL40 peptide variant]"
  HLA-E Upregulation [%]: 54.2
- CONSTRUCT_SEQUENCE: "VMAPRTLLL [HCMV UL40 peptide variant]"
  HLA-E Upregulation [%]: 99.5
- CONSTRUCT_SEQUENCE: "VMAPWTLIL [HCMV UL40 peptide variant]"
  HLA-E Upregulation [%]: 31.9
- CONSTRUCT_SEQUENCE: "VVAPRTLVL [HCMV UL40 peptide variant]"
  HLA-E Upregulation [%]: 48.5
- CONSTRUCT_SEQUENCE: "VIAPRTLIL [HCMV UL40 peptide variant]"
  HLA-E Upregulation [%]: 40.6

Would you be so kind as to report HLA-E Upregulation for each listed record?
1. VMGPRTLIL [HCMV UL40 peptide variant]
2. VMTPRTLIL [HCMV UL40 peptide variant]
3. GMAPRTLLL [HCMV UL40 peptide variant]
4. VMAPWTLVL [HCMV UL40 peptide variant]
5. VMTPRTLVL [HCMV UL40 peptide variant]
6. VMAPRSLIL [HCMV UL40 peptide variant]

Result:
48.9
69.3
41.5
39.6
65.5
54.6

Request: Endpoint output: HLA-E Upregulation of VMAPRTLFL [HCMV UL40 peptide variant] . Value?
Result: 100.0

###

molecular target: HLA-E (Homo sapiens, UniProt P13747); construct: expressed in transfected cells; host or cells: mouse lymphoma cell line RMA-S/HLA-E/LFA-3, a gift from Chiara Romagnani, DRFZ Berlin; assay: HLA-E stabilization by UL40 peptides on HLA-E-expressing RMA-S cells; type: cell-based; conditions: HLA-E-expressing RMA-S cells incubated with UL40 peptide
ASSAY_METRIC: HLA-E Upregulation (%)
Give bare numbers, in %.

Sample answers from the record:
- CONSTRUCT_SEQUENCE: "VMAPRILVL [HCMV UL40 peptide variant]"
  VALUE: 60.5
- CONSTRUCT_SEQUENCE: "VMAPRILIL [HCMV UL40 peptide variant]"
  VALUE: 54.2
- CONSTRUCT_SEQUENCE: "VMAPRSLLL [HCMV UL40 peptide variant]"
  VALUE: 61.9

Could you now look at the following sequence, please?
Request: # value lookup — system HLA-E (Homo sapiens, UniProt P13747), readout HLA-E Upregulation, item VMTPRTLLL [HCMV UL40 peptide variant]
Result: 66.3

###

target: HLA-E (Homo sapiens, UniProt P13747); construct: expressed in transfected cells; host or cells: mouse lymphoma cell line RMA-S/HLA-E/LFA-3, a gift from Chiara Romagnani, DRFZ Berlin; test: HLA-E stabilization by UL40 peptides on HLA-E-expressing RMA-S cells; assay type: cell-based; conditions: HLA-E binding class of UL40 variant

- CONSTRUCT_SEQUENCE: "VMAPRILIL [HCMV UL40 peptide variant]"
  STUDY_TARGET: "HLA-E (Homo sapiens, UniProt P13747)"
  Interpretation: "Low Binding (↑)"
- CONSTRUCT_SEQUENCE: "VMTPRTLLL [HCMV UL40 peptide variant]"
  STUDY_TARGET: "HLA-E (Homo sapiens, UniProt P13747)"
  Interpretation: "Low Binding (↑)"
- CONSTRUCT_SEQUENCE: "VMGPRTLIL [HCMV UL40 peptide variant]"
  STUDY_TARGET: "HLA-E (Homo sapiens, UniProt P13747)"
  Interpretation: "Low Binding (↑)"
